Tested on: CEM cells HIV-1 protection, formazan growth assay
Assay: NCI AIDS Antiviral Assay
Conditions: measured here: growth of uninfected CEM cells
metric: IC50

molecule: CC(=O)CC(=O)ON(C)C(C)=O
observed measurement: > 1450 µM

molecule: c1ccc2[nH]c(CNc3ccc(C4C[Se]N=N4)cc3)nc2c1 (stereo not drawn)
observed measurement: > 20.4 µM

molecule: COc1ccc(C(c2ccccc2)(c2ccc(OC)cc2)N2C(=O)NC3C(CCCCC(=O)NCCCCCCOP(OCCC#N)N(C(C)C)C(C)C)SCC32)cc1 (stereo not drawn)
observed measurement: > 4.47 µM

----------
Tested on: CEM cells HIV-1 protection, formazan growth assay
Experiment: NCI AIDS Antiviral Assay
pEC50: −log10 of the molar value.
// reported pEC50 per item
metric: pEC50

molecule: C#Cc1cccc(N2C(=O)CCC2=O)c1
metric: pEC50
observed measurement: < 3.33
--
molecule: N#Cc1nc(C2SCCCS2)oc1N
metric: pEC50
observed measurement: < 3.70
--
molecule: CC(C)(C)C1=CC(=Nc2c([N+](=O)[O-])cc([N+](=O)[O-])cc2[N+](=O)[O-])C=C(C(C)(C)C)C1=O
metric: pEC50
observed measurement: < 4.94
--
molecule: O=C(O)C1SCCS1
metric: pEC50
observed measurement: < 3.70
--
molecule: CCC[CH2][Sn]([CH2]CCC)([O]C(=O)c1cccc(F)c1)[O]C(=O)c1cccc(F)c1
metric: pEC50
observed measurement: < 4.99
--
molecule: CC(CN(C)C)OC(=O)c1cc2ccccc2[nH]1 (stereo not given)
metric: pEC50
observed measurement: < 3.70
--
molecule: CCc1ccccc1N1C(=O)C(=O)C(c2nc3ccccc3s2)C(=O)C1=O
metric: pEC50
observed measurement: < 3.75
--
molecule: Cc1cc(N(CCC#N)CCC#N)ccc1/C=C1\SC(=S)NC1=O
metric: pEC50
observed measurement: < 3.70
--
molecule: NC(N)=NC(P(=O)(O)O)P(=O)(O)O
metric: pEC50
observed measurement: < 3.70
--
molecule: Cc1ccc(C(=O)Nc2ccc(S(=O)(=O)O)c3cc(S(=O)(=O)O)cc(S(=O)(=O)O)c23)cc1NC(=O)c1cccc(N)c1
metric: pEC50
observed measurement: < 3.70
--
molecule: O=C1/C(=C/c2ccccc2Cl)CCc2ccccc21
metric: pEC50
observed measurement: < 5.00
--
molecule: OCc1ccc2c(c1)CC1(C2)Cc2cc3c(cc2C1)CCC3
metric: pEC50
observed measurement: < 3.70
--
molecule: COC(=O)C1(C(=O)OC)C2(CCCC2)C1(C(=O)OC)C(=O)OC
metric: pEC50
observed measurement: < 3.70
--
molecule: Cc1ccc(N2CN(c3ccc(C)cc3)CC(C)(N)C2)cc1
metric: pEC50
observed measurement: < 3.70
--
molecule: O=C(Nc1ccc2cc(S(=O)(=O)O)ccc2c1)c1ccc(N=Nc2cc(S(=O)(=O)O)c3ccccc3c2O)cc1
metric: pEC50
observed measurement: < 4.30

----------
System: CEM cells HIV-1 protection, formazan growth assay
Assay: NCI AIDS Antiviral Assay
Settings: measured here: growth of uninfected CEM cells
pIC50: −log10 of the molar value.
Reported pIC50 is given for each of the following molecules.
metric: pIC50

molecule: c1ccc(-c2nnc(-c3nsc4ccccc34)o2)cc1
metric: pIC50
observed measurement: < 4.73

molecule: CS(=O)(=O)c1ccc(-c2cc(-c3ccc(S(C)(=O)=O)cc3)[n+](-c3cc(-c4ccccc4)c([O-])c(-c4ccccc4)c3)c(-c3ccc(S(C)(=O)=O)cc3)c2)cc1
metric: pIC50
observed measurement: < 3.16

molecule: NC1=NN(c2ccccc2)C(=O)C1/C(=N\NC(=O)c1cc2ccccc2cc1O)C(=O)Nc1ccc(Cl)cc1 (centres undefined)
metric: pIC50
observed measurement: < 5.16

molecule: CCN(CC)CCOC(=O)c1ccc(N)cc1
metric: pIC50
observed measurement: < 3.70

----------
Tested on: CEM cells HIV-1 protection, formazan growth assay
Assay: NCI AIDS Antiviral Assay;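 active = compounds giving half or more protection of infected cells from virus-caused growth loss, again on retest; inactive = the rest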
Labels: 1 for active, -1 for inactive

compound: COc1ccc2c(c1)[n+]([O-])c(/C(C)=N/NC(=O)c1ccccc1O)c(C)[n+]2[O-]
class assignment: -1
//
compound: COc1cc(C2SC(N)=Nc3c2c(C)nn3C(=O)Cc2ccccc2)ccc1O (centres undefined)
class assignment: 1
//
compound: COc1cc2ccc3c4c(OC)cc(OC)c(OC)c4c(=O)n(C)c3c2cc1OC
class assignment: -1
//
compound: CC(=O)OC1CCC2C3CCC4(C)C(=O)CCC4C3C3OC23C1 (centres undefined)
class assignment: -1

----------
Test system: CEM cells HIV-1 protection, formazan growth assay
Experiment: NCI AIDS Antiviral Assay
Conditions: measured here: growth of uninfected CEM cells
metric: IC50

molecule: CCOC(=O)C/C(C)=N\NS(=O)(=O)c1ccc(N)cc1
observed measurement: > 417 µM
//
molecule: CC1(C)OCC2OC3OC(C)(C)OC3C(OS(C)(=O)=O)C2O1 (stereo unspecified)
observed measurement: > 200 µM
//
molecule: CC1(C)C2(C(N)=O)C(=O)NC(=O)C12C(=O)O (stereo unspecified)
observed measurement: > 200 µM
//
molecule: OC1CCOc2ccccc21 (stereo unspecified)
observed measurement: > 200 µM
//
molecule: O=C1OCCC1(Cc1ccc(Cl)cc1)Cc1ccc(Cl)cc1
observed measurement: > 29.5 µM
//
molecule: CCOC(=O)C(CCCCS(=O)(=O)O)C(=O)OCC
observed measurement: > 200 µM
//
molecule: O=c1c2ccccc2c(=O)c2c1cc(Cl)c1[nH]c3c([nH]c12)c(Cl)cc1c(=O)c2ccccc2c(=O)c13
observed measurement: > 7.41 µM
//
molecule: COc1ccccc1NC(=O)CC(=O)NN
observed measurement: > 200 µM
//
molecule: COP(C)(=O)C1=CCN(C(=O)OCC[Si](C)(C)C)CC1 (stereo unspecified)
observed measurement: > 200 µM
//
molecule: CCCCCCCCCCCC(=O)Nc1ccc(SSc2ccc(NC(=O)CCCCCCCCCCC)cc2)cc1
observed measurement: > 200 µM
//
molecule: CCOC(=O)CN1C(=O)c2c(NC(=O)C(=O)O)cccc2S1(=O)=O
observed measurement: > 200 µM

----------
# pIC50 listing for each entry below
System: CEM cells HIV-1 protection, formazan growth assay
Experiment: NCI AIDS Antiviral Assay
Conditions: measured here: growth of uninfected CEM cells
pIC50: −log10 of the molar value.

compound: NC12CCC(CC1=O)C2 (stereo not given)
pIC50: < 3.70

compound: Cc1nc2c(N)n[nH]c(=O)n2n1
pIC50: < 3.70

compound: CC1=Nc2c(C#N)ncn2N=C(C)C1
pIC50: < 3.70

compound: C1CSCCSCCCS[C@@H]2CCCCC2SC1 (stereo not given in full)
pIC50: < 4.00

compound: COC(=O)/C(C#N)=C1\CCc2ccccc21
pIC50: < 2.93

compound: COC(=O)c1cnc2nc(N3CCOCC3)[nH]n2c1=O
pIC50: < 4.89

compound: O=C1Nc2ccccc2C1(O)C/C(=N/O)c1ccc2ccccc2c1 (stereo not given)
pIC50: < 3.97

compound: O=C(CP(=O)(O)O)NC(CC(=O)OCc1ccccc1)C(=O)OCc1ccccc1 (stereo not given)
pIC50: < 4.00

compound: Cc1cc(-c2ccccc2)nc(Nc2cc3ccccc3[nH]2)n1
pIC50: < 3.22

compound: COc1ccc2c(c1)C/C(=C\c1cccc3ccccc13)C2=O
pIC50: 4.29

----------
Test system: CEM cells HIV-1 protection, formazan growth assay
Experiment: NCI AIDS Antiviral Assay
Details: measured here: growth of uninfected CEM cells
Below, each entry is listed alongside its reported IC50.

compound: O=[N+]([O-])/C=C/c1cn(CCCCCCCCCCCCn2cc(/C=C/[N+](=O)[O-])c3ccccc32)c2ccccc12
target or test system: CEM cells HIV-1 protection, formazan growth assay
IC50: > 100 µM
//
compound: O=C(O)c1c[nH]c2c(ccc3[nH]cc(C(=O)O)c(=O)c32)c1=O
target or test system: CEM cells HIV-1 protection, formazan growth assay
IC50: > 200 µM
//
compound: CC1=C(C)C(N2CCOCC2)CS(=O)(=O)O1 (stereo not drawn)
target or test system: CEM cells HIV-1 protection, formazan growth assay
IC50: > 200 µM

----------
Tested on: CEM cells HIV-1 protection, formazan growth assay
Test: NCI AIDS Antiviral Assay;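 active = compounds giving half or more protection of infected cells from virus-caused growth loss, again on retest; inactive = the rest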
Labels: 1.0 for active, 0.0 for inactive

compound: COc1c(C(=O)CC2c3c(cc4oc(C)cc(=O)c4c3OC)OC(=N)C2c2nc3ccccc3[nH]2)c(O)c(OC)c2occc12 (configuration not stated)
class assignment: 1.0
--
compound: CC(C)(C)NC(=S)N/N=C/c1ccccn1
class assignment: 0.0
--
compound: CCOC(=O)NP(=O)(N1CC1)N1CC1
class assignment: 0.0
--
compound: CCCC/C(=N\OC(=O)N(C)C)c1ccccc1
class assignment: 0.0
--
compound: CCC(C#N)NCc1cccc(CNC(C#N)CC)c1 (configuration not stated)
class assignment: 0.0
--
compound: CC1C(=O)NC(=O)NC1=O
class assignment: 0.0
--
compound: O=[N+]([O-])C(C=C(n1nnc2ccccc21)n1nnc2ccccc21)=C(n1nnc2ccccc21)n1nnc2ccccc21
class assignment: 0.0
